measuredOn: human estrogen receptor (Estrogen Receptor α) (Homo sapiens, UniProt P03372)
Sequence (P03372 whole entry): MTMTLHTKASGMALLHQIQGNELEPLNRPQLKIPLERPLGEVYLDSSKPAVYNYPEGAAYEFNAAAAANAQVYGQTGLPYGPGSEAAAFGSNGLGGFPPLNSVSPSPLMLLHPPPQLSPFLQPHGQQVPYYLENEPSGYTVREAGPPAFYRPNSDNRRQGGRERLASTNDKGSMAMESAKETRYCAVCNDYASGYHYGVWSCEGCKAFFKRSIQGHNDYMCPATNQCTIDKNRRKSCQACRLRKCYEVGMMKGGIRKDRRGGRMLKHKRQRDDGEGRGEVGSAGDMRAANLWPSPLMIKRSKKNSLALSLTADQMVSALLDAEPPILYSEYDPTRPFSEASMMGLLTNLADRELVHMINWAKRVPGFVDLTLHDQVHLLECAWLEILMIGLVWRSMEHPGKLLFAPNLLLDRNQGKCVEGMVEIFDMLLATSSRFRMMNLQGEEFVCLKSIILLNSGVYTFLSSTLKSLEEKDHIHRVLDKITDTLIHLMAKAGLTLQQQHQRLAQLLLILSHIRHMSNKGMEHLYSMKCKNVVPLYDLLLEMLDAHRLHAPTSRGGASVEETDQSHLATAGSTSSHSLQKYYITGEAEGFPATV
measurementProtocol: Analysis of detected pure substances in ER-CALUX
Format: cell-based

{"molecule": "CC(C)C(=O)OCC(C)(C)C(OC(=O)C(C)C)C(C)C (stereo not shown)", "measuredOn": "human estrogen receptor (Estrogen Receptor α) (Homo sapiens, UniProt P03372)", "EC50": "> 500 µM"}
